Test: qHTS assay for small molecule agonists of the antioxidant response element (ARE) signaling pathway - cell viability counter screen (AID 743203); also: nearly all actives have a fitted effect of over 55% in size
Settings: ARE-bla HepG2 viability, CellTiter-Glo luminescence, 16 h; series mostly up to 73.3 µM
Inconclusive results are not listed. Active and inactive are the calls of the source. Calls follow the shape of the full dose curve.
endpoint: outcome

Below: 8 molecules and their reported outcome.
# molecule, observed
data = [
    ("CC(=O)S[C@H](C(=O)N[C@H]1Cc2ccccc2[C@H]2CCC[C@@H](C(=O)O)N2C1=O)C(C)C", "inactive"),
    ("CC(=O)OCC(=O)[C@@]1(O)CC[C@H]2[C@@H]3CCC4=CC(=O)C=C[C@]4(C)[C@@]3(F)[C@@H](O)C[C@@]21C", "inactive"),
    ("C[C@]12CCC(=O)C=C1[C@@H]1C[C@@H]1[C@H]1[C@@H]3[C@@H]4C[C@@H]4[C@@]4(CCC(=O)O4)[C@@]3(C)CC[C@@H]12", "inactive"),
    ("NC(=O)c1ccccc1C(N)=O", "inactive"),
    ("COc1cc(C)c(Cc2cnc(N)nc2N)cc1OC", "inactive"),
    ("Nc1ccc(F)cc1F", "inactive"),
    ("Nc1ncnc2c1ncn2[C@@H]1O[C@H](CO)[C@@H](O)[C@H]1O", "inactive"),
    ("C[C@H](CN1CCCC1)C(=O)c1ccc(C(F)(F)F)cc1", "inactive"),
]

Hi team, please reply with outcome for each item in this list.
1. CCCCCCCCCCCC(=O)OCC
2. C/C(=C\C(C)CC(C)CC(C)C)C1CC(=O)OC1=O (configuration not stated)
3. O=C(OC1C[C@H]2CC[C@@H](C1)[N+]21CCCC1)C(O)(c1ccccc1)c1ccccc1 (some centres not stated)
4. Nc1cccc2c(=O)[nH][nH]c(=O)c12
5. O=C(OCCN1CCOCC1)c1cccnc1Nc1cccc(C(F)(F)F)c1
6. CCc1ccc2c(c1)C(=O)c1ccccc1C2=O
7. O=Cc1ccc(Cl)c([N+](=O)[O-])c1
8. O=C1C=CCCC1

1: inactive; 2: inactive; 3: inactive; 4: inactive; 5: inactive; 6: inactive; 7: inactive; 8: inactive

Hi team, please reply with outcome for each item in this list.
1. Cc1ccc(NC=O)c(C)c1
2. CC1(C)CC(=O)CC(C)(C)N1
3. C/C=C1\[C@H]2C=C(C)C[C@]1(N)c1ccc(=O)[nH]c1C2
4. Cc1ccc2c(Cl)cc(Cl)c(O)c2n1
5. CC1(C)CC(O)CC(C)(C)N1[O]
6. O=C(Cl)c1ccc(F)c(Cl)c1

1. inactive
2. inactive
3. inactive
4. inactive
5. inactive
6. inactive

Hi team, please reply with outcome for each item in this list.
1. O=[N+]([O-])c1ccccc1CCO
2. CCn1nc(Cc2ccccc2)cc1C1CCN(C[C@H]2C[C@H](N(C)[C@@H](C(=O)O)C(C)C)C[C@@H]2c2cccc(F)c2)CC1
3. C/C(=C(\CCO)SS/C(CCO)=C(\C)N(C=O)Cc1cnc(C)nc1N)N(C=O)Cc1cnc(C)nc1N
4. O=C(O)c1ccncc1
5. NC(=O)c1ccccc1

1: inactive; 2: inactive; 3: inactive; 4: inactive; 5: inactive

* * *

Test: qHTS assay for identifying genotoxic compounds that show differential cytotoxicity against isogenic chicken DT40 cell lines with known DNA damage response pathways - Rev3 mutant cell line (AID 743014); also: nearly all actives have a fitted effect of over 55% in size
Settings: chicken DT40 Rev3-/- viability, CellTiter-Glo, 40 h; series mostly up to 68.4 µM
Description: National Center for Advancing Translational Sciences [NCATS] NIH Chemical Genomics Center [NCGC] U.S. Environmental Protection Agency [EPA] National Institutes of Environmental Health Sciences [NIEHS] National Toxicology Program [NTP] U.S. Food and Drug Administration [FDA] DNA repair pathways play a critical role in cellular homeostasis by repairing DNA damage induced by endogenous processes and xenobiotics. […]
Results filed as inconclusive are left out. Activity calls are given as the source filed them. Calls follow the shape of the dose curve; as a rule, active = well fitted cell-killing curve with a large enough effect in the repeat runs; inconclusive = weak or mixed curves, or effect the other way; inactive = no such curve, though single readings can be large or run the other way.
Please reply with one of these outcomes: active, inactive

Recorded results for 5 compounds are shown here.
# compound, qualitative.label
rows = [
    ("O=C(c1ccc(Cl)cc1)c1ccc(Cl)cc1", "inactive"),
    ("CC(=O)Nc1ccccc1O", "inactive"),
    ("CC(=O)Nc1ccn(C2COC(COC(=O)c3ccccc3)O2)c(=O)n1 (stereo not given)", "active"),
    ("C=CC(=O)OCCCCCCCCCC", "inactive"),
    ("CCCC(=O)OCc1ccccc1", "inactive"),
]

Just curious, what result did CCCCCCCCNC get here? inactive

Just curious, what result did Cc1cc(C)n(CO)n1 get here? inactive

Just curious, what result did CC1(C)CC(O)CC(C)(C)N1[O] get here? inactive

Just curious, what result did CCCCCCCCCCCCSCCOCCO get here? inactive

* * *

Assay: qHTS assay for small molecule agonists of the p53 signaling pathway - cell viability (AID 651633);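 also: p53RE-bla HCT reporter cells with a stable beta-lactamase p53 reporter; nearly all actives have a fitted effect of over 30% in size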
Conditions: p53RE-bla HCT-116 viability, ATP luminescence, 16 h; series mostly up to 83.3 µM
Inconclusive results are not listed. Calls of active or inactive are those of the source. Calls follow the shape of the full dose curve.
endpoint: outcome

# compound, observed
data = [
    ("Cc1c(-c2cccnc2)c2ccccc2n1CCCCC(=O)O", "inactive"),
    ("CCCCCO", "inactive"),
    ("CC(C(=O)O)c1ccc(/C=C2\\CCCCC2=O)cc1 (stereo not drawn)", "inactive"),
]

* * *

Assay: qHTS assay for small molecules that induce genotoxicity in human embryonic kidney cells expressing luciferase-tagged ATAD5 (AID 651632); also: nearly all actives have a fitted effect of over 15% in size
Conditions: HEK293T ATAD5-luciferase induction, 16 h; series mostly up to 83.3 µM
Inconclusive results are not listed. Active and inactive are the calls of the source. Calls follow the shape of the dose curve; as a rule, active = well fitted activation curve with a large enough effect in the repeat runs; inconclusive = weak or mixed curves; inactive = no such curve, though single readings can be large or run the other way.
Please reply with one of these outcomes: t (active), f (inactive)

# compound, qualitative.label
records = [
    ("O=c1c2ccccc2oc2ccccc12", "f"),
    ("COC(=O)/C=C/C(C)=C\\C=C\\C(C)=C\\C=C\\C=C(C)\\C=C\\C=C(C)\\C=C\\C(=O)O", "f"),
]

Just curious, what result did CCCCCCCCCCCC(=O)OCC get here? f

Just curious, what result did CCCCCCCCCCCCCCCCN get here? f

Just curious, what result did COC(=O)Cc1cccc2ccccc12 get here? f

* * *

Test: A CellTox Green Cytotoxicity Assay to monitor cytotoxicity in HEK293 cells - 24 hour (AID 1224875); also: nearly all actives have a fitted effect of over 45% in size
Conditions: CellTox Green fluorescence; series mostly up to 76.8 µM
Inconclusive results are not listed. Calls of active or inactive are those of the source. The call rests on the fitted dose curve; in most records, active means well fitted activation curve with a large enough effect in the repeat runs; inconclusive means weak or mixed curves; inactive means flat fitted curve, though single readings scatter.
endpoint: activity change

Below: 8 molecules and their reported activity change.
# molecule, observed
data = [
    ("CCC(CC)C(=O)O", "inactive"),
    ("OCCc1ccncc1", "inactive"),
    ("CCCCCCCCNC", "inactive"),
    ("O=C(OCCN1CCOCC1)c1cccnc1Nc1cccc(C(F)(F)F)c1", "inactive"),
    ("CC(=O)Oc1cccc2c1C(=O)c1c(OC(C)=O)cc(C(=O)O)cc1C2=O", "inactive"),
    ("Cc1ccc(S(=O)(=O)NC(=O)NC2CCCC2)cc1", "inactive"),
    ("O=C(Nc1ccccc1)c1cc([N+](=O)[O-])ccc1Cl", "inactive"),
    ("CCC(=O)O[C@@H]1C[C@H]2CC[C@]1(C)C2(C)C", "inactive"),
]

Hi team, please reply with activity change for each item in this list.
1. Nc1ccc(-c2ccc(F)cc2)cc1
2. COc1ccnc2c1CCCCC2S(=O)c1nc2ccccc2[nH]1 (stereo not drawn)
3. NCCOCCOCCN
4. Nc1cccc2c(=O)[nH][nH]c(=O)c12
5. Cc1ccc(NC(=O)c2ccc(CN3CCN(C)CC3)cc2)cc1Nc1nccc(-c2cccnc2)n1

inactive
inactive
inactive
inactive
inactive

* * *

Experiment: qHTS assay for small molecule activators of the heat shock response signaling pathway (AID 743210);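 also: HeLa cells with beta-lactamase reporter driven by heat shock elements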
Details: HeLa HSE-bla reporter, beta-lactamase ratio, 5 h; series mostly up to 62.6 µM
Records with an inconclusive call do not appear. The source made the active and inactive calls. Calls follow the shape of the dose curve; as a rule, active = well fitted activation curve with a large enough effect in the signal ratio in the repeat runs, with a control signal flat (not every such curve was filed as active); inconclusive = weak or mixed curves; inactive = flat fitted curve, though single readings scatter; the % refers to the signal ratio.
endpoint: activation

Below: 4 compounds and their reported activation.
# compound, activation
measured = [
    ("CCCCCCCCCCCCSCCOCCO", "inactive"),
    ("CC/C=C\\CCO", "inactive"),
    ("CCC(C)C1N=C(C)C(C)S1 (stereo not drawn)", "inactive"),
    ("S=c1[nH][nH]c(=S)s1", "inactive"),
]

Hi team, please reply with activation for each item in this list.
1. O=C(Nc1ccc2c(c1)Cc1ccccc1-2)C(F)(F)F
2. CC(O)C(C)O (stereo not drawn)
3. COC(=O)Cc1cccc2ccccc12
4. CC1(COc2ccc(CC3SC(=O)NC3=O)cc2)CCCCC1 (stereo not drawn)
5. Sc1nc(S)nc(S)n1

1. inactive
2. inactive
3. inactive
4. inactive
5. inactive

Hi team, please reply with activation for each item in this list.
1. O=[N+]([O-])c1cccc(I)c1
2. CC(C)(C(=O)O)c1ccc(C(O)CCCN2CCC(C(O)(c3ccccc3)c3ccccc3)CC2)cc1 (stereo not drawn)
3. C1=COCCC1
4. Cc1ccccc1CCO
5. NC(=O)c1ccccc1
6. [O-][n+]1ccc(Cl)cc1
7. CCCc1nc(C)c2c(=O)[nH]c(-c3cc(S(=O)(=O)N4CCN(CC)CC4)ccc3OCC)nn12
8. O=C(O)c1ccc2c(c1)nc(C(=O)NC1CCN(C3CC3)CC1)n2Cc1cc(-c2ccc(Cl)s2)on1

1: inactive; 2: inactive; 3: inactive; 4: inactive; 5: inactive; 6: inactive; 7: inactive; 8: inactive

Hi team, please reply with activation for each item in this list.
1. COC(=O)c1cc(Cl)ccc1[N+](=O)[O-]
2. O=C1C=CCCC1
3. Cc1cc(SC2=C(O)C[C@@](CCc3ccc(N)cc3)(C(C)C)OC2=O)c(C(C)(C)C)cc1CO
4. NC(=O)c1ccccc1C(N)=O
5. Nc1nc(Cl)nc2c1ncn2[C@H]1C[C@H](O)[C@@H](CO)O1

["inactive", "inactive", "inactive", "inactive", "inactive"]

Hi team, please reply with activation for each item in this list.
1. Cc1c(N=C=O)cccc1N=C=O
2. CC(C)Cc1nccs1
3. CC(C)=CCCC(C)C=O (stereo not drawn)
4. C/C=C1\[C@H]2C=C(C)C[C@]1(N)c1ccc(=O)[nH]c1C2
5. C/C(=C(\CCO)SS/C(CCO)=C(\C)N(C=O)Cc1cnc(C)nc1N)N(C=O)Cc1cnc(C)nc1N
6. CC(C)CC(C)(C)C

1: inactive; 2: inactive; 3: inactive; 4: inactive; 5: inactive; 6: inactive
